experimental-system: CYP2C9 (Homo sapiens)
Sequence (P11712 whole entry): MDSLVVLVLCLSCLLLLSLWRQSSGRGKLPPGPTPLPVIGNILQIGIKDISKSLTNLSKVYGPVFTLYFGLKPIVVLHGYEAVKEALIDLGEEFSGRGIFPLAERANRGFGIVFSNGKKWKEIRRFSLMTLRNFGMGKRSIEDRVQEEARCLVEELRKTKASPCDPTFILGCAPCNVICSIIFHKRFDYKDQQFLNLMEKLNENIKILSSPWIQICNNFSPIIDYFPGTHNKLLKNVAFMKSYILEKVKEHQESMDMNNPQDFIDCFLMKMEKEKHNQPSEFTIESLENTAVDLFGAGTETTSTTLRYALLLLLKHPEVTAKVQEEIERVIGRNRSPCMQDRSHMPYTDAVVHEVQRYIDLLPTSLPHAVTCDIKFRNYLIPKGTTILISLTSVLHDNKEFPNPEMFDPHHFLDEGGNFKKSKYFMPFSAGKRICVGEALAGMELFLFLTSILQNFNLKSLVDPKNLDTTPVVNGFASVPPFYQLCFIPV
measurement-protocol: CYP inhibition in human liver microsomes (Eurofins ITEMG232)
Type: in vitro ADME
Set-up: isoform-specific substrates incubated with human liver microsomes; tissue Eurofins ITEMG232 (protocol number); host or cells: human liver microsomes
experimental-setup: human, probe diclofenac, substrate diclofenac, read-out: CYP2C9 Inh %
Consider the following molecules and their measured inhibition at 10 µM readings.

# smiles-code, unit-label, inhibition at 10 µM
records = [
    ("CC(C)Cc1ccc(S(=O)(=O)Nc2ncc(Cl)cn2)c(-c2ccc(Cn3ccnc3C(C)(C)C)cc2)c1", "%", 46),
    ("COc1ncncc1NS(=O)(=O)c1ccc(CC(C)C)cc1-c1ccc(Cn2ccnc2C(C)(C)C)cc1", "%", 90.8),
    ("CC(C)Cc1ccc(S(=O)(=O)Nc2nccs2)c(-c2ccc(Cn3ccnc3C(C)(C)C)cc2)c1", "%", 72.9),
    ("COc1ncncc1NS(=O)(=O)c1ccc(CC(C)C)cc1-c1ccc(Cn2ccnc2C(C)(C)C)c(F)c1", "%", 94.7),
    ("COc1ncnc(OC)c1NS(=O)(=O)c1ccc(CC(C)C)cc1-c1ccc(Cn2ccnc2C(C)(C)C)cc1", "%", 87.6),
    ("Cc1cnc(NS(=O)(=O)c2ccc(CC(C)C)cc2-c2ccc(Cn3ccnc3C(C)(C)C)c(F)c2)nc1", "%", 66.4),
    ("CCc1nccn1Cc1ccc(-c2cc(CC(C)C)sc2S(=O)(=O)Nc2ncccn2)cc1F", "%", 20),
    ("COc1ccc(NS(=O)(=O)c2ccc(CC(C)C)cc2-c2ccc(Cn3ccnc3C(C)(C)C)cc2)nn1", "%", 55.5),
    ("CC(C)Cc1ccc(S(=O)(=O)Nc2ncc(F)cn2)c(-c2ccc(Cn3ccnc3C(C)(C)C)c(F)c2)c1", "%", 73.1),
    ("CC(C)Cc1ccc(S(=O)(=O)Nc2nccs2)c(-c2ccc(Cn3ccnc3C(C)(C)C)c(F)c2)c1", "%", 86.6),
    ("COc1ncnc(OC)c1NS(=O)(=O)c1ccc(CC(C)C)cc1-c1ccc(Cn2ccnc2C(C)(C)C)c(F)c1", "%", 80.7),
    ("CC(C)Cc1ccc(S(=O)(=O)Nc2ncccn2)c(-c2ccc(Cn3ccnc3C(C)(C)C)c(F)c2)c1", "%", 41.3),
    ("Cc1nc(NS(=O)(=O)c2ccc(CC(C)C)cc2-c2ccc(Cn3ccnc3C(C)(C)C)cc2)oc1C", "%", 50.9),
]

###

Consider the following compounds and their measured inhibition at 10 µM readings.
experimental-system: CYP1A2 (Homo sapiens)
Construct: isoform-specific substrates incubated with human liver microsomes; tissue Eurofins ITEMG232 (protocol number); host or cells: human liver microsomes
Sequence (P05177 whole entry, canonical isoform): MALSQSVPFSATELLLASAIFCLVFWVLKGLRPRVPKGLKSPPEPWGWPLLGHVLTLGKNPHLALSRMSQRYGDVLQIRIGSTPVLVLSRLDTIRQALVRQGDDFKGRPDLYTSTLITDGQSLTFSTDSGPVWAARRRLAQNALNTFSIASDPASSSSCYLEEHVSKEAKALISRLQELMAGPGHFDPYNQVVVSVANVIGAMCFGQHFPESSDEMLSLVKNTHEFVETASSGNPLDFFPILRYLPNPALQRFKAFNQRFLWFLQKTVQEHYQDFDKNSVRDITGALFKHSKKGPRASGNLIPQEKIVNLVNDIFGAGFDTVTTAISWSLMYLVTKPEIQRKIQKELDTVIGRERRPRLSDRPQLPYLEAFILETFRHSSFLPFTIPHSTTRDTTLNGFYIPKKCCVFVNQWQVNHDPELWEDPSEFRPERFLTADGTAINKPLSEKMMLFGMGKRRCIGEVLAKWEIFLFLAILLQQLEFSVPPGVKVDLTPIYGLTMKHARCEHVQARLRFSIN
measurement-protocol: in vitro
Assay type: in vitro ADME
experimental-setup: human, microsomes, human liver microsomes, substrate phenacetin, read-out: CYP1A2 Inh %

# smiles-code, inhibition at 10 µM [%]
rows = [
    ("CC(C)Cc1ccc(S(=O)(=O)Nc2ncc(F)cn2)c(-c2ccc(Cn3ccnc3C(C)(C)C)c(F)c2)c1", 48.6),
    ("COc1ncnc(OC)c1NS(=O)(=O)c1ccc(CC(C)C)cc1-c1ccc(Cn2ccnc2C(C)(C)C)cc1", 21.7),
    ("Cc1nc(NS(=O)(=O)c2ccc(CC(C)C)cc2-c2ccc(Cn3ccnc3C(C)(C)C)cc2)oc1C", 19.8),
    ("CC(C)Cc1ccc(S(=O)(=O)Nc2ncc(F)cn2)c(-c2ccc(Cn3ccnc3C(C)(C)C)cc2)c1", -33.8),
    ("Cc1nc(NS(=O)(=O)c2ccc(CC(C)C)cc2-c2ccc(Cn3ccnc3C(C)(C)C)c(F)c2)oc1C", -19.4),
    ("CC(C)Cc1ccc(S(=O)(=O)Nc2ncc(Cl)cn2)c(-c2ccc(Cn3ccnc3C(C)(C)C)c(F)c2)c1", 37.7),
    ("CC(C)Cc1ccc(S(=O)(=O)Nc2ncc(C(F)(F)F)cn2)c(-c2ccc(Cn3ccnc3C(C)(C)C)cc2)c1", 19.5),
    ("CC(C)Cc1ccc(S(=O)(=O)Nc2ncc(Br)cn2)c(-c2ccc(Cn3ccnc3C(C)(C)C)cc2)c1", 85.4),
    ("CC(C)Cc1ccc(S(=O)(=O)Nc2nccs2)c(-c2ccc(Cn3ccnc3C(C)(C)C)cc2)c1", 19.2),
    ("CC(C)Cc1ccc(S(=O)(=O)Nc2ncc(Br)cn2)c(-c2ccc(Cn3ccnc3C(C)(C)C)c(F)c2)c1", 14.3),
    ("COc1ccc(NS(=O)(=O)c2ccc(CC(C)C)cc2-c2ccc(Cn3ccnc3C(C)(C)C)c(F)c2)nn1", 6.6),
    ("COc1ncncc1NS(=O)(=O)c1ccc(CC(C)C)cc1-c1ccc(Cn2ccnc2C(C)(C)C)c(F)c1", -1.1),
    ("Cc1nccn1Cc1ccc(-c2cc(CC(C)C)sc2S(=O)(=O)Nc2ncccn2)cc1F", 33),
    ("Cc1cnc(NS(=O)(=O)c2ccc(CC(C)C)cc2-c2ccc(Cn3ccnc3C(C)(C)C)cc2)nc1", 10.7),
    ("COc1ncncc1NS(=O)(=O)c1ccc(CC(C)C)cc1-c1ccc(Cn2ccnc2C(C)(C)C)cc1", 9.7),
    ("CC(C)Cc1ccc(S(=O)(=O)Nc2ncccn2)c(-c2ccc(Cn3ccnc3C(C)(C)C)c(F)c2)c1", 45.9),
    ("CC(C)Cc1ccc(S(=O)(=O)Nc2ncccn2)c(-c2ccc(Cn3ccnc3)c(F)c2)c1", 60.2),
]

Source: patent US12441718B2
